test: SK-BR-3 cell growth inhibitors, pilot screen, 24 h, human (AID 572); details: SK-BR-3 viability, CellTiter-Glo luminescence, at 10 µM, hits give low values;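 also: compound exposure lasted between 18 and 24 h rather than exactly 24 h; 100% = carrier-treated control wells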
Property Name: viability (%)
Write the answer as a number in %, unit excluded.

Example molecules with recorded viability:
{"Molecule": "CCOC(=O)C(C#N)C(c1cccnc1)c1c(C)[nH][nH]c1=O (stereo unspecified)", "Number": 77}
{"Molecule": "CCn1c(SCC(=O)N2c3ccccc3CCc3ccccc32)nc2c1c(=O)n(C)c(=O)n2C", "Number": 87.5}
{"Molecule": "Cc1cnc(NC(=O)C2=C(O)c3ccccc3S(=O)(=O)N2C)s1", "Number": 102}
{"Molecule": "Cc1cc(C)nc(N(C#N)CC(=O)N2CCC(C(N)=O)CC2)n1", "Number": 104}
{"Molecule": "Cc1cnc(NC(=O)CSc2nnc(-c3ccccc3)n2Cc2ccccc2)s1", "Number": 99}

INPUT: Which viability value belongs to "COc1cc2nc(SCC(=O)NC3CC3)n(CCC3=CCCCC3)c(=O)c2cc1OC" ?
OUTPUT: 102

INPUT: Which viability value belongs to "S=c1[nH]nc(Cc2ccccc2)n1Cc1ccco1" ?
OUTPUT: 78

INPUT: Which viability value belongs to "CN(C)c1cccc(C(=O)OCC(=O)NCc2ccco2)c1" ?
OUTPUT: 102
